Data credit: patent US9266867B2

- SYSTEM_NAME: EDG-1 (Homo sapiens, UniProt P21453)
- Sequence (P21453 whole entry): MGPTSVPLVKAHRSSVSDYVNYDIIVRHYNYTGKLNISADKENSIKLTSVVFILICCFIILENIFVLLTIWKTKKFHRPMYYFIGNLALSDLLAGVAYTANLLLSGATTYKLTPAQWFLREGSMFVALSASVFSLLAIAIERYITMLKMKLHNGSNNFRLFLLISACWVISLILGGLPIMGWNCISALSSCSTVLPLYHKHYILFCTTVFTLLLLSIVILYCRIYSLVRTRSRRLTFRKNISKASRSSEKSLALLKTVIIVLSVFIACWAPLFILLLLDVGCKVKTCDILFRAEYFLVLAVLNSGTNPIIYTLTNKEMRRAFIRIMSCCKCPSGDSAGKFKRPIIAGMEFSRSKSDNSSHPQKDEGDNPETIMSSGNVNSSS
- ASSAY_TEXT: 35S-GTPγS binding assay, EDG1 (S1P1)
- Assay type: biochemical
- Set-up: expressed in transfected cells
- APPLIED_CONDITIONS: Table 1a; read-out: EC50 (nM) EDG1
MEASUREMENT_LABEL: EC50

COCC1(C(=O)O)CCN(Cc2ccc(-c3noc(-c4ccc(C5CCCC5)c(Cl)c4)n3)cc2)CC1 [Example 9]: < 1 nM

Which EC50 value belongs to CCC1(C(=O)O)CCN(Cc2ccc(-c3noc(-c4ccc(CC(C)C)c(Cl)c4)n3)cc2)CC1 [Example 11] ?
< 1 nM

Which EC50 value belongs to C=CCC1(C(=O)O)CCN(Cc2ccc(-c3noc(-c4ccc(CC(C)C)c(Cl)c4)n3)cc2)CC1 [Example 12] ?
< 1 nM

---

Examples of molecules with documented Lymphopenia in rats % lymphopenia at 1 mpk/p.o dose 8 Hrs follow.
- Tested on: circulating lymphocytes
- ASSAY_TEXT: Assessment of lymphopenia in rats
- Format: in vivo
- APPLIED_CONDITIONS: 1 mpk p.o., 8 Hrs
Reply numerically in %, unit not repeated.

Please review the following examples before continuing.
O=C(O)C1CCN(Cc2ccc(-c3noc(-c4ccc(-c5ccccc5)c(F)c4)n3)cc2)CC1 [compound 1]: 18
Cl.O=C(O)C1CCN(Cc2ccc(-c3noc(-c4ccc(C5CCCCC5)cc4)n3)cc2)CC1 [compound 4]: 2
CC(C)Cc1ccc(-c2nc(-c3ccc(CN4CCC(C(=O)O)CC4)cc3)no2)cc1.Cl [compound 2]: −25

Okay, now this molecule:
Provide the documented Lymphopenia in rats % lymphopenia at 1 mpk/p.o dose 8 Hrs with circulating lymphocytes as the system for CC(C)Cc1ccc(-c2nc(-c3ccc(CN4CCC[C@@H](C(=O)O)C4)cc3)no2)cc1 [compound 3]
−24

---

- System: circulating lymphocytes
- ASSAY_TEXT: In vivo lymphopenia ED50 in mice
- APPLIED_CONDITIONS: Mus musculus, Lymphocyte, read-out: ED50 (EDG1) (In mice)
- Description: b) Assessment of Lymphopenia Lymphopenia was assessed in vivo. Experiments were done in non-fasted/fasted Swiss mice and/or: Sprague Dawley rats, Wistar rats, Beagle dogs, Cynomolgus monkeys. Compounds were administered orally in suspension in carboxymethyl-cellulose 0.5-1% in water (W/V). […] After 10 minutes stirring, cells were counted using ABC Vet haemocytometer (Scil vet animal Care) for rodent and dog or ADVIA 120 hematology analyzer for monkeys. […]
Examples of molecules with documented ED50 follow.
Reply numerically in mg/kg, unit not repeated.

Which ED50 value belongs to `COCC1(C(=O)O)CCN(Cc2ccc(-c3noc(-c4ccc(C5CCCCC5)c(Cl)c4)n3)cc2)CC1` ?
0.2

Which ED50 value belongs to `COCCOCC1(C(=O)O)CCN(Cc2ccc(-c3noc(-c4ccc(CC(C)C)c(Cl)c4)n3)cc2)CC1` ?
0.2

Which ED50 value belongs to `CC(C)Cc1ccc(-c2nc(-c3ccc(CN4CCC(C)(C(=O)O)CC4)cc3)no2)cc1Cl` ?
0.2
